System: PC-3 (prostate cancer) cells
Assay: MTT cell growth inhibition, solid tumor cells
Type: cell-based, human
Condition Details: Homo sapiens; PC-3, 72 h, MTT; read-out: IC50
Observation Type: IC50 (µg/mL)

# Molecule, Observation Type, Result
records = [
    ("COc1ccc2cc1Oc1ccc(cc1)C[C@H]1c3cc(c(OC)cc3CCN1C)Oc1c(OS(=O)(=O)c3ccc(C)cc3)c(OC)cc3c1[C@H](C2)N(C)CC3", "IC50", 3.17),
    ("COc1ccc2cc1Oc1ccc(cc1)C[C@H]1c3cc(c(OC)cc3CCN1C)Oc1c(OCc3cccc(F)c3F)c(OC)cc3c1[C@H](C2)N(C)CC3", "IC50", 3.8),
    ("COc1ccc2cc1Oc1ccc(cc1)C[C@H]1c3cc(c(OC)cc3CCN1C)Oc1c(OCC(O)CN3CCCC(C)C3)c(OC)cc3c1[C@H](C2)N(C)CC3 (stereo partly drawn)", "IC50", 2.85),
    ("C=CCN(C)CC(O)COc1c(OC)cc2c3c1Oc1cc4c(cc1OC)CCN(C)[C@H]4Cc1ccc(cc1)Oc1cc(ccc1OC)C[C@@H]3N(C)CC2 (stereo partly drawn)", "IC50", 2.89),
    ("COc1ccc2cc1Oc1ccc(cc1)C[C@H]1c3cc(c(OC)cc3CCN1C)Oc1c(OS(=O)(=O)c3ccccc3)c(OC)cc3c1[C@H](C2)N(C)CC3", "IC50", 2.5),
    ("COc1cc(OC)cc(C(=O)Oc2c(OC)cc3c4c2Oc2cc5c(cc2OC)CCN(C)[C@H]5Cc2ccc(cc2)Oc2cc(ccc2OC)C[C@@H]4N(C)CC3)c1", "IC50", 3.08),
]
